Molecular target: ASK1-TIR1-IAA19 co-receptor complex (TIR1-IAA19) (Arabidopsis thaliana, UniProt O24409+Q570C0)
Construct: ASK1-TIR1 from insect cells (Sf9 or Hi5), purified; IAA19 N-terminally GST-tagged from E. coli, full length; with SKP1-like protein 1A
Sequence (Q570C0 whole entry): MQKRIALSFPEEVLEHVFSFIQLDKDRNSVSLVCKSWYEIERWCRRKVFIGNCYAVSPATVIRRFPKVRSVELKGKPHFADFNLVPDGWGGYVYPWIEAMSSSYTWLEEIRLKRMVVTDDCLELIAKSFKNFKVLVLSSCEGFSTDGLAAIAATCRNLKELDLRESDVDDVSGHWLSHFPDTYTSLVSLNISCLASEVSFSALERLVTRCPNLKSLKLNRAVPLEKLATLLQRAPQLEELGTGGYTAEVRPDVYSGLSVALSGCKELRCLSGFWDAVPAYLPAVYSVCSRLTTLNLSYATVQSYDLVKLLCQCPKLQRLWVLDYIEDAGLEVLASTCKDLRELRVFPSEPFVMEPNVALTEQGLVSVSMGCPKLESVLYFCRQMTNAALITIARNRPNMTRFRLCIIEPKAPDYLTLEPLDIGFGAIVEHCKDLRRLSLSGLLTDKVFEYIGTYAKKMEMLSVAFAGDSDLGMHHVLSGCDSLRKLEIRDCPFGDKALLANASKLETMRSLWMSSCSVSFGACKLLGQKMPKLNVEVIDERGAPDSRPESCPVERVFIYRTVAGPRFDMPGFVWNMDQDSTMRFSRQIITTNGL
Sequence (O24409 whole entry): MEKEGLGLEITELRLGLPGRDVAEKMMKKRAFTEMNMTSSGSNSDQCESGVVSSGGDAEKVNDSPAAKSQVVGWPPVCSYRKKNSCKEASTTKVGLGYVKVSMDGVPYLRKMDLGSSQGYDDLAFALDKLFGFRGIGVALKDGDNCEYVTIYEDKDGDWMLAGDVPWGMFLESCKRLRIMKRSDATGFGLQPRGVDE
Sequence (Q39255 whole entry partner): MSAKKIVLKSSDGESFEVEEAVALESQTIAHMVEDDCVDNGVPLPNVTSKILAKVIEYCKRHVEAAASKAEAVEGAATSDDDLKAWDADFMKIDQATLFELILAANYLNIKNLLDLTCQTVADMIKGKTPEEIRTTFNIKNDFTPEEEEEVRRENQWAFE
Test: [3H]IAA saturation radioligand binding
pKd: −log10 of the molar value.
property name: pKd

record smiles: O=C(O)Cc1c[nH]c2ccccc12
observed value: 7.81
